Ref: paper PMC11163988

Ki by entry:
Target: Tg_CA (Toxoplasma gondii α-CA) (Toxoplasma gondii)
Sequence (S8F479 486-829 limits assumed): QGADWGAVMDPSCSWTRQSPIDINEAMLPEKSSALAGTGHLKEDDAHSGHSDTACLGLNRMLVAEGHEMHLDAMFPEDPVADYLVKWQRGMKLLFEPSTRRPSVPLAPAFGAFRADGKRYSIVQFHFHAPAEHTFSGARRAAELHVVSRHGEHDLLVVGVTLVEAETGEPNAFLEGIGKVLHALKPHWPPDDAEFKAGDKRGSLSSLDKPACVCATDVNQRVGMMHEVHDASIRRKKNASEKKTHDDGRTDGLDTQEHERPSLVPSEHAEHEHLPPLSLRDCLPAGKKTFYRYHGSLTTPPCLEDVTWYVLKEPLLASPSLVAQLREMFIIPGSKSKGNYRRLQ
Measurement Description: biochemical
Type: biochemical
Run Parameters: pH 7.5; read-out: KI (mM) Tg_CAα

Some solved entries appear below for comparison.
# Molecule, Ki
rows = [
    ("NS(N)(=O)=O [H2NSO2NH2, sulfamide]", "0.92 mM"),
    ("Cl [Cl^–, chloride]", "> 100 mM"),
    ("S=C(S)S [CS3^2–, trithiocarbonate]", "4.8 mM"),
]

Qu. // fetch Ki; item: O=C(O)O [HCO3^–, bicarbonate] ; system: Tg_CA (Toxoplasma gondii α-CA) (Toxoplasma gondii)
Ans. > 100 mM

Qu. // fetch Ki; item: [N-]=[N+]=[N-] [N3^–, azide] ; system: Tg_CA (Toxoplasma gondii α-CA) (Toxoplasma gondii)
Ans. > 100 mM
